- measurement_protocol: clinical
- Parameters: species or system human
- test_settings: human, in vivo, iv, 800 mg
Peptide text beside a SMILES is read from it.
value_kind: Vd (L)
All answers are understood in L, so give the number only.

Q) Sample CC(=O)N[C@H](C(=O)N[C@H](CO)C(=O)N[C@H]1CCNC(=O)[C@H]([C@@H](C)O)NC(=O)[C@H](CCN)NC(=O)[C@H](CCN)NC(=O)[C@H](CC(C)C)NC(=O)[C@@H](Cc2ccccc2)NC(=O)[C@H](CCN)NC1=O)[C@@H](C)O [SPR741] (HELM PEPTIDE1{[ac].T.[dS].[Dab].[Dab].[dF].L.[Dab].[Dab].T}$PEPTIDE1,PEPTIDE1,4:R3-10:R2$$$V2.0) — what was its Vd?
A) 21.2
